Tested on: BT-549 breast
Test: NCI tumour cell line growth inhibition, 48 h

- STRUCTURE: "CCOC(=O)c1ccc(NC(=O)Nc2nncs2)cc1"
  GI50: "735 nM"
- STRUCTURE: "CCN(Cc1ccc(C)cc1)c1ccc(CO)c(Cl)c1"
  GI50: "5000 nM"
- STRUCTURE: "Cc1nc([P+](c2ccccc2)(c2ccccc2)c2ccccc2)c(Sc2sc(-c3ccccc3)nc2[P+](c2ccccc2)(c2ccccc2)c2ccccc2)o1"
  GI50: "1280 nM"
- STRUCTURE: "CCN1C/C(=C\\c2cc(OC)c(OC)cc2OC)C(=O)/C(=C/c2cc(OC)c(OC)cc2OC)C1"
  GI50: "2870 nM"
- STRUCTURE: "COc1cc(Nc2nc3cc(N)cc(N)c3nc2-c2ccccc2)cc(OC)c1OC"
  GI50: "16800 nM"

----------
System: MOLT-4 leukemia
Assay: NCI tumour cell line growth inhibition, 48 h
As shown below, each of these compounds has a reported TGI value.

- COMPOUND: "CC(C)(C)OC(=O)NC(CCCCNC(=O)OCc1ccccc1)C(=O)NCCNc1ccc(NCCNC(=O)C(CCCCNC(=O)OCc2ccccc2)NC(=O)OC(C)(C)C)c2c1C(=O)c1ccccc1C2=O (centres undefined)"
  TGI: "> 100 µM"
- COMPOUND: "COc1ccc(/C=C/C(=O)c2cc(OC)c(OC)c(OC)c2)cc1OCC(=O)Nc1nc2ccc(OC(F)(F)F)cc2s1"
  TGI: "> 100 µM"
- COMPOUND: "Clc1ccccc1/C=c1\\nc(-c2ccccc2)n2c1nc1ccccc12"
  TGI: "> 100 µM"
- COMPOUND: "Cc1c(Cl)cccc1NC(=O)C(=O)C(C(=O)c1ccccc1-c1ccccc1)C1OC(=O)c2ccccc21 (centres undefined)"
  TGI: "57.8 µM"
- COMPOUND: "O=C(O)CCCC(=O)Nn1c(Cc2ccc(Cl)cc2)n[nH]c1=O"
  TGI: "> 100 µM"
- COMPOUND: "Cc1c(N2C(=O)/C(=C/c3ccc(Cl)cc3)N=C2c2ccccc2)c(=O)n(-c2ccccc2)n1C"
  TGI: "> 100 µM"
- COMPOUND: "Nc1ncnc2c1sc1nc3ccccc3n12"
  TGI: "> 78.7 µM"
- COMPOUND: "O=C(NC1(c2cc3ccccc3s2)CCCCC1)C1CCC1"
  TGI: "> 100 µM"
- COMPOUND: "COC(=O)CC(NC(=O)OCc1ccccc1)C(C(C)=O)C(=O)OCc1ccccc1 (centres undefined)"
  TGI: "> 31.6 µM"

----------
As shown below, each of these compounds has a reported TGI value.
Test system: SN12C renal
Test: NCI tumour cell line growth inhibition, 48 h

- COMPOUND: "O=C(Nc1ccc2[nH]nc(-c3ccncc3)c2c1)[C@@H]1CCN(CC(=O)N2CCN(c3ccc(-c4ncccn4)cc3)CC2)C1"
  TGI: "> 100 µM"
- COMPOUND: "Clc1ccccc1/C=c1\\nc(-c2ccccc2)n2c1nc1ccccc12"
  TGI: "> 100 µM"
- COMPOUND: "COc1cc(NS(C)(=O)=O)ccc1Nc1cc[nH]c2ccc3nccc3c12"
  TGI: "28.2 µM"
- COMPOUND: "CS(=O)(=O)Nc1cncc(-c2ccc3ncnc(Nc4ccc(F)c(Cl)c4)c3c2)c1"
  TGI: "15.2 µM"
- COMPOUND: "c1cc(NNc2cccc(-c3nn[nH]n3)c2)cc(-c2nn[nH]n2)c1"
  TGI: "> 100 µM"
- COMPOUND: "NC1=CN(CCCO)C2=N/C(=C\\c3ccccc3)C(=O)N12"
  TGI: "> 100 µM"
- COMPOUND: "CN(C)c1ccc(C=Nc2ccc(Oc3ccc(Cl)cc3)c(Cl)c2)cc1"
  TGI: "43.6 µM"
- COMPOUND: "CCCCNC(=O)c1cc2c(cc1Cl)Sc1nccn1S2(=O)=O"
  TGI: "> 100 µM"
- COMPOUND: "N#Cc1nc(CCN2C(=O)c3ccccc3C2=O)oc1N"
  TGI: "> 100 µM"
- COMPOUND: "O=C(CC(Cl)=C(Cl)Cl)Nc1ccccc1"
  TGI: "> 100 µM"
- COMPOUND: "CC(=O)O[C@H]1C(=O)[C@@]2(C)C(C(OC(=O)c3ccccc3)[C@]3(O)C[C@H](OC(=O)C(OC(=O)CCCC(=O)NCCCN(C)C)C(NC(=O)c4ccccc4)c4ccccc4)C(C)=C1C3(C)C)C1(OC(C)=O)COC1C[C@@H]2O (stereo partly specified)"
  TGI: "75.5 µM"
- COMPOUND: "C/C(=C1/N=C(c2cc([N+](=O)[O-])ccc2Cl)N(c2cccc(C)c2)C1=O)c1cc2ccccc2oc1=O"
  TGI: "> 100 µM"
- COMPOUND: "Cc1coc2c1C[C@@]1(C)[C@H](CCC[C@@H]1C)[C@H]2O"
  TGI: "55.5 µM"
- COMPOUND: "N#CC12Cc3cc4c(cc3-c3cccc(c31)CCN2C(=O)c1ccccc1)OCO4 (stereo unspecified)"
  TGI: "> 100 µM"
- COMPOUND: "CC(C)C1=CC(=O)C(C)(C2C(O)CC3(C)C4CC=C5C(CCC(OC6OC(CO)C(O)C(O)C6OC6OC(C)C(O)C(O)C6O)C5(C)C)C4(C)C(=O)CC23C)O1 (stereo unspecified)"
  TGI: "> 100 µM"
- COMPOUND: "CC[C@H](C)[C@H]1NC(=O)[C@@H](NC(=O)[C@@H](CC(C)C)N(C)C(=O)C2CCCN2C(=O)[C@H](C)O)[C@@H](C)OC(=O)[C@H](Cc2ccc(OC)cc2)N(C)C(=O)[C@@H]2CCCN2C(=O)[C@H](CCCCNC(=O)OCc2ccccc2)NC(=O)[C@H](C)C(=O)[C@H](C(C)C)OC(=O)C[C@@H]1O (stereo partly specified)"
  TGI: "> 25 µM"

----------
System: HL-60(TB) leukemia
Assay: NCI tumour cell line growth inhibition, 48 h
MEASUREMENT_KIND: TGI (µM)

- MOLECULE: "C=C1C(=O)O[C@H]2C/C(C)=C/CC[C@@]3(C)O[C@](C)(CC[C@@H]3I)[C@@H](I)C[C@@H]12"
  SYSTEM: "HL-60(TB) leukemia"
  RESULT_MODIFIER: "="
  REPORTED_RESULT: 20.2
- MOLECULE: "CCc1ccccc1N=NC(=O)NNc1ccccc1CC"
  SYSTEM: "HL-60(TB) leukemia"
  RESULT_MODIFIER: "="
  REPORTED_RESULT: 56.9
- MOLECULE: "COc1ccc2c(c1)/C(=C\\c1c(-c3cc(OC)ccc3OC)nc3sc(C)cn13)C(=O)N2C"
  SYSTEM: "HL-60(TB) leukemia"
  RESULT_MODIFIER: "="
  REPORTED_RESULT: 41.4
- MOLECULE: "Clc1ccccc1/C=c1\\nc(-c2ccccc2)n2c1nc1ccccc12"
  SYSTEM: "HL-60(TB) leukemia"
  RESULT_MODIFIER: ">"
  REPORTED_RESULT: 100
- MOLECULE: "COC(=O)/C(C#N)=C(\\Nc1ccccc1)N1CCOCC1"
  SYSTEM: "HL-60(TB) leukemia"
  RESULT_MODIFIER: ">"
  REPORTED_RESULT: 100
- MOLECULE: "N#Cc1cc(C#N)c(N)nc1N"
  SYSTEM: "HL-60(TB) leukemia"
  RESULT_MODIFIER: ">"
  REPORTED_RESULT: 100
- MOLECULE: "COc1ccc2c(c1OC)C[C@@H]1c3c(cc4c(c3-2)OCO4)CCN1C"
  SYSTEM: "HL-60(TB) leukemia"
  RESULT_MODIFIER: "="
  REPORTED_RESULT: 27.2
- MOLECULE: "Cc1c(N2C(=O)/C(=C/c3ccc(Cl)cc3)N=C2c2ccccc2)c(=O)n(-c2ccccc2)n1C"
  SYSTEM: "HL-60(TB) leukemia"
  RESULT_MODIFIER: "="
  REPORTED_RESULT: 57
- MOLECULE: "CC(=O)OCC1OC(n2cc(F)c(=O)[nH]c2=O)C(NC(=O)N(CCCl)N=O)C(OC(C)=O)C1OC(C)=O (configuration not stated)"
  SYSTEM: "HL-60(TB) leukemia"
  RESULT_MODIFIER: ">"
  REPORTED_RESULT: 100
- MOLECULE: "CCN(CC)c1ccc(/C=N/NC(=O)CSc2nc3ccccc3c(=O)n2CCc2ccc(S(N)(=O)=O)cc2)c(O)c1"
  SYSTEM: "HL-60(TB) leukemia"
  RESULT_MODIFIER: "="
  REPORTED_RESULT: 6.44
- MOLECULE: "O=C(Cc1ccc(/C=C/C(=O)c2ncc[nH]2)cc1)Nc1ccc(F)cc1"
  SYSTEM: "HL-60(TB) leukemia"
  RESULT_MODIFIER: "="
  REPORTED_RESULT: 10.6
- MOLECULE: "C/C(=C1/N=C(c2cc([N+](=O)[O-])ccc2Cl)N(c2cccc(C)c2)C1=O)c1cc2ccccc2oc1=O"
  SYSTEM: "HL-60(TB) leukemia"
  RESULT_MODIFIER: ">"
  REPORTED_RESULT: 100
- MOLECULE: "O=C(CC(Cl)=C(Cl)Cl)Nc1ccccc1"
  SYSTEM: "HL-60(TB) leukemia"
  RESULT_MODIFIER: ">"
  REPORTED_RESULT: 100
- MOLECULE: "c1ccc([P+](CCSCCSCC[P+](c2ccccc2)(c2ccccc2)c2ccccc2)(c2ccccc2)c2ccccc2)cc1"
  SYSTEM: "HL-60(TB) leukemia"
  RESULT_MODIFIER: ">"
  REPORTED_RESULT: 100
- MOLECULE: "CCOC(=O)C1Cc2c(cc3c4c(cccc24)N(C(C)=O)C3)N(C)C1 (configuration not stated)"
  SYSTEM: "HL-60(TB) leukemia"
  RESULT_MODIFIER: ">"
  REPORTED_RESULT: 100
- MOLECULE: "C=C=C(CC1CCCCC1=O)S(=O)(=O)c1ccccc1 (configuration not stated)"
  SYSTEM: "HL-60(TB) leukemia"
  RESULT_MODIFIER: "="
  REPORTED_RESULT: 2.5
- MOLECULE: "O=C1/C(=C\\Oc2ccc(F)cc2)N2CCC1CC2"
  SYSTEM: "HL-60(TB) leukemia"
  RESULT_MODIFIER: ">"
  REPORTED_RESULT: 100
- MOLECULE: "COc1cc(/C=C\\c2cc(OC)c(OC)c(OC)c2)cc(N/C=C\\C(=O)c2ccc(OC(F)(F)F)cc2)c1OC"
  SYSTEM: "HL-60(TB) leukemia"
  RESULT_MODIFIER: "="
  REPORTED_RESULT: 8.08
- MOLECULE: "COc1ccc(N=NC(=O)NC(Cc2ccccc2)C(=O)O)cc1 (configuration not stated)"
  SYSTEM: "HL-60(TB) leukemia"
  RESULT_MODIFIER: ">"
  REPORTED_RESULT: 100
- MOLECULE: "Nc1nccc(-c2c(-c3ccc(F)cc3)ncn2C2CCNCC2)n1"
  SYSTEM: "HL-60(TB) leukemia"
  RESULT_MODIFIER: ">"
  REPORTED_RESULT: 25
- MOLECULE: "CCCCCCCCCCCCCCCCCc1cccc(OCOCCOC)c1C(=O)O"
  SYSTEM: "HL-60(TB) leukemia"
  RESULT_MODIFIER: "="
  REPORTED_RESULT: 50.8
- MOLECULE: "CCN(CCCN(C)C)Cc1cc(I)cc(C)c1O"
  SYSTEM: "HL-60(TB) leukemia"
  RESULT_MODIFIER: "="
  REPORTED_RESULT: 41.5
- MOLECULE: "c1ccc2sc(SCCSc3nc4ccccc4s3)nc2c1"
  SYSTEM: "HL-60(TB) leukemia"
  RESULT_MODIFIER: ">"
  REPORTED_RESULT: 100
- MOLECULE: "COc1ccc(C2=C(Cl)c3cc(OC)c(OC)cc3C2OC)cc1OC (configuration not stated)"
  SYSTEM: "HL-60(TB) leukemia"
  RESULT_MODIFIER: ">"
  REPORTED_RESULT: 100
- MOLECULE: "N#CCCN(c1ccc(C=Nc2ccccc2)cc1)S(=O)(=O)c1ccccc1"
  SYSTEM: "HL-60(TB) leukemia"
  RESULT_MODIFIER: ">"
  REPORTED_RESULT: 100
- MOLECULE: "CC(NC(=O)/C(=C/c1ccccc1)NC(=O)c1ccccc1)C(=O)O (configuration not stated)"
  SYSTEM: "HL-60(TB) leukemia"
  RESULT_MODIFIER: ">"
  REPORTED_RESULT: 100
- MOLECULE: "O=C(O)CN1C=C(C(=O)c2cc3ccccc3n2S(=O)(=O)c2ccccc2)CCC1"
  SYSTEM: "HL-60(TB) leukemia"
  RESULT_MODIFIER: "="
  REPORTED_RESULT: 71.5
